Data origin: patent US20220177587A1

molecular target: CD28 (human) (UniProt P10747); experiment: flow cytometry, Jurkat cells (CD28)
endpoint: MFI at 33.3 nM (MFI)

1) CD80 IgV-Fc E35D/D46E/M47L/V68M/L85Q/F92L (Fc fusion) VIHVTKEVKEVATLSCGHNVSVEELAQTRIYWQKDKKMVLTMMSGELNIWPEYKNRTIFDITNNLSIMILALRPSDEGTYECVVQKYEKDALKREHLAEVTLSVKAD    15
2) CD80 E35D/D46V/M47L/V68M/L85Q/E88D IgV-Fc, GS(G4S)5 linker (Fc fusion) VIHVTKEVKEVATLSCGHNVSVEELAQTRIYWQKDKKMVLTMMSGVLNIWPEYKNRTIFDITNNLSIMILALRPSDEGTYECVVQKYDKDAFKREHLAEVTLSVKADGSGGGGSGGGGSGGGGSGGGGSGGGGS    143
3) CD80 E35D/D46V/M47L/V68M/L85Q/E88D IgV-Fc, EAAAK linker (Fc fusion) VIHVTKEVKEVATLSCGHNVSVEELAQTRIYWQKDKKMVLTMMSGVLNIWPEYKNRTIFDITNNLSIMILALRPSDEGTYECVVQKYDKDAFKREHLAEVTLSVKADEAAAK    563
4) variant CD80 IgV-Fc A26E/V68M/A71G/D90G (Fc fusion) VIHVTKEVKEVATLSCGHNVSVEELEQTRIYWQKEKKMVLTMMSGDMNIWPEYKNRTIFDITNNLSIMILGLRPSDEGTYECVVLKYEKGAFKREHLAEVTLSVKAD    1190
5) variant CD80 IgV-Fc E35D/M47L/V68M/D90G (Fc fusion) VIHVTKEVKEVATLSCGHNVSVEELAQTRIYWQKDKKMVLTMMSGDLNIWPEYKNRTIFDITNNLSIMILALRPSDEGTYECVVLKYEKGAFKREHLAEVTLSVKAD    3410
6) variant CD80 IgV-Fc H18Y/A26E/M47L/A71G (Fc fusion) VIHVTKEVKEVATLSCGYNVSVEELEQTRIYWQKEKKMVLTMMSGDLNIWPEYKNRTIFDITNNLSIVILGLRPSDEGTYECVVLKYEKDAFKREHLAEVTLSVKAD    611
7) variant CD80 IgV-Fc (inert) H18V/E35D/M47V/V68M/A71G/D90G (Fc fusion) VIHVTKEVKEVATLSCGVNVSVEELAQTRIYWQKDKKMVLTMMSGDVNIWPEYKNRTIFDITNNLSIMILGLRPSDEGTYECVVLKYEKGAFKREHLAEVTLSVKAD    2120
8) CD80 IgV-Fc E35D/M47L/V68M/A71G/L85Q/D90G (Fc fusion) VIHVTKEVKEVATLSCGHNVSVEELAQTRIYWQKDKKMVLTMMSGDLNIWPEYKNRTIFDITNNLSIMILGLRPSDEGTYECVVQKYEKGAFKREHLAEVTLSVKAD    1400
9) CD80 E35D/M47V/N48K/V68M/L85M IgV-Fc (Fc fusion) VIHVTKEVKEVATLSCGHNVSVEELAQTRIYWQKDKKMVLTMMSGDVKIWPEYKNRTIFDITNNLSIMILALRPSDEGTYECVVMKYEKDAFKREHLAEVTLSVKAD    245
10) CD80 E35D/M47L/Y53F/V68M/A71G/K93R/E95V IgV-Fc (Fc fusion) VIHVTKEVKEVATLSCGHNVSVEELAQTRIYWQKDKKMVLTMMSGDLNIWPEFKNRTIFDITNNLSIMILGLRPSDEGTYECVVLKYEKDAFRRVHLAEVTLSVKAD    383
